- target_under_test: 5'-nucleotidase (Homo sapiens, UniProt P21589)
- Sequence (P21589 whole entry): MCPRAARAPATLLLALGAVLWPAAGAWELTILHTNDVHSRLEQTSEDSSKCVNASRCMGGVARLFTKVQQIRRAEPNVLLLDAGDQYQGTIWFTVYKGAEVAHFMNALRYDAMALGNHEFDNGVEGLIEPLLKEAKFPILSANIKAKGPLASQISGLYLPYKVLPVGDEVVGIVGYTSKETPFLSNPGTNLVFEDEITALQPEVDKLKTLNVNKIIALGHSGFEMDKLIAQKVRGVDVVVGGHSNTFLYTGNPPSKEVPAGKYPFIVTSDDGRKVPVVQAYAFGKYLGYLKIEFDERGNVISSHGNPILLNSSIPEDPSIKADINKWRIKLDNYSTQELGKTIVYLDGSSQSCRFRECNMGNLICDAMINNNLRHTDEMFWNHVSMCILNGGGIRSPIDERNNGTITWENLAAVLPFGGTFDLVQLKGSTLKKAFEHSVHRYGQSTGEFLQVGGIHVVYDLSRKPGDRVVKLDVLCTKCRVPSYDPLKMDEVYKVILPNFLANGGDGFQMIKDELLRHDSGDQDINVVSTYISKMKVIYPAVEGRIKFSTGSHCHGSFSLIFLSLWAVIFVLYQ
- test_summary: Enzyme Activity In Vitro Assay: I. Experimental Materials and Equipment1. Malachite green phosphate detection kit (R & D Systems, Cat #, DY996)2. Recombinant human 5′-nucleotidase (CD73) (R & D Systems, Cat #, 5795-EN)3. HEPES buffer (Gibco, Cat #, 15630-080)4. CMP (Sigma, Cat #, C1006)5. DMSO (Fisher Chemical, Cat #, D128-1)6. NaCl 5M (Boston Bioproducts, Cat #, BM-244)7.384-well plate (Fisher, Cat #, 5795-EN)8. TECAN plate reader (TECAN)II. Experimental ProcedureCompounds are first dissolved in DMSO to 10 mM as a stock solution. When determining the IC50 of the compound, prepare 3-fold serial dilutions with a highest concentration of 125 μM for a total of 12 concentration points and ensure each dilution containing equal amount of DMSO. In each well of 384-well plate, 0.34 nM of recombinant human 5′-nucleotidase (CD73) was pre-incubated at 37° C. for 2 hours with the compounds tested in assay buffer containing 20 mM HEPES buffer (pH 7.4), 137 mM NaCl, 0.001% Tween 20. The final reaction volume of the reaction in each well was 12 μL. The highest concentration of compound was 125 μM and the DMSO concentration was 1.25%. After pre-incubation, 3 μL of CMP dissolved in assay buffer was added to each reaction. The final CMP concentration was 45 μM. The reaction was incubated at 37° C. for 15 minutes. Then 3 μL of Malachite Green Reagent A was added to each reaction. Spin the plate briefly in centrifuge for 30 seconds. After incubation for additional 10 minutes at room temperature, 3 μL of malachite green Reagent B was added to each reaction. Spin the plate briefly in centrifuge for 30 seconds. After 20 minutes of incubation at room temperature, the signal was read on a TECAN reader at OD620.
result_type: pIC50
Formally, pIC50 is defined as -log10 of the concentration c, with c in mol/L.

// pIC50 lookup, compound = CC(OC(=O)C(C)(C)C)OP(=O)(COC[C@H]1O[C@@H](n2ncc3c(N4CC5(CCc6ccccc65)C4)nc(Cl)nc32)[C@H](O)[C@@H]1O)OC(C)OC(=O)C(C)(C)C (stereo partly specified) , result: 6.57
